- experimental-system: T1, Rad51 (Schizosaccharomyces pombe? (fission …, UniProt P36601 1-365))
- T1 sequence: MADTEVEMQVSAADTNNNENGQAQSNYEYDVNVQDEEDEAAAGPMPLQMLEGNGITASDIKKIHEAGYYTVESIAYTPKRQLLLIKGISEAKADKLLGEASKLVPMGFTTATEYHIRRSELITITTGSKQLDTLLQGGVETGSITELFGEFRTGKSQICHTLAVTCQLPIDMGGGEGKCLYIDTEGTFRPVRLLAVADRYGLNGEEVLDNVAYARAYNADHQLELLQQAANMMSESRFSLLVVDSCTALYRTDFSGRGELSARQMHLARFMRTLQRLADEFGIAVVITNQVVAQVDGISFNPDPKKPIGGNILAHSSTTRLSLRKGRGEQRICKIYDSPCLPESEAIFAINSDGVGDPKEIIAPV
- procedure-details: fluorescence anisotropy; 1 mM ATP, 3 mM Mg2+; Hill fit; 30 mM HEPES-KOH pH 7.5, 100 mM KCl, 3 mM MgCl2 or CaCl2, 1 mM DTT, 5% glycerol, 1 mM adenine nucleotide, 3 uM (nt) TAMRA-dT72, 25 C
- protocol-conditions: protein: recombinant; label: 5' TAMRA; single-stranded
recorded-endpoint: Kd (nM)
Write the answer as a number in nM, unit excluded.

Summary for this binder, [TAMRA]dT72 (ssDNA) DNA: TTTTTTTTTTTTTTTTTTTTTTTTTTTTTTTTTTTTTTTTTTTTTTTTTTTTTTTTTTTTTTTTTTTTTTTT : Kd is 308

These data points were gathered from paper PMC11551746.
